Data provenance: ChEMBL document CHEMBL1142384

# MEASUREMENT DESCRIPTION: Cytotoxicity against mock-infected MDBK cells by LDH method
# Type: cell-based, Bos taurus
# CONDITION NOTES: cattle
OBSERVED PROPERTY: log10 of CC50 (log10 of the value in µM)
Answers are given as log10 of CC50 in µM.

// worked examples, log10 of CC50 included
Cc1nccc2[nH]c3ccccc3c12 | 0.99
c1ccc2c(c1)[nH]c1cnccc12 | 1.89
CCCCCCn1c2ccccc2c2cnccc21 | 0.87

log10 of CC50 for `CCn1c2ccccc2c2cnccc21` ?
1.46

log10 of CC50 for `CCN(CC)CCn1c2ccccc2c2cnccc21` ?
1.00

log10 of CC50 for `c1ccc(Cn2c3ccccc3c3cnccc32)cc1` ?
1.04

log10 of CC50 for `c1ccc2c(c1)[nH]c1ccncc12` ?
1.60

log10 of CC50 for `CC(C)n1c2ccccc2c2cnccc21` ?
1.48

log10 of CC50 for `Cc1cccc2c1[nH]c1ccncc12` ?
1.38

log10 of CC50 for `CCCn1c2ccccc2c2cnccc21` ?
1.41

###

# MEASUREMENT DESCRIPTION: Cytotoxicity against mock-infected MDBK cells by LDH method
# Assay type: cell-based, Bos taurus
# CONDITION NOTES: cattle
OBSERVED PROPERTY: CC50 (µM)
All answers are understood in µM, so give the number only.

// worked examples, CC50 included
Cc1cncc2c1[nH]c1ccccc12 | 21
Cc1cccc2[nH]c3ccncc3c12 | 16

CC50 for `Cc1ccc2c(c1)[nH]c1ccncc12` ?
24

CC50 for `Cn1c2ccccc2c2cnccc21` ?
29

CC50 for `Cc1cc2[nH]c3ccccc3c2cn1` ?
70

CC50 for `Cn1ccc2nc3ccccc3c-2c1` ?
65

CC50 for `Cc1ccc2[nH]c3ccncc3c2c1` ?
12

CC50 for `CCCCn1c2ccccc2c2cnccc21` ?
14
